# assayedSystem: glutathione-S-transferase (GST) tagged LXRbeta LBD (ligand binding domain) (Homo sapiens, UniProt P55055)
# Construct: purchased Invitrogen pv4658
# Sequence (P55055 222-460 limits assumed): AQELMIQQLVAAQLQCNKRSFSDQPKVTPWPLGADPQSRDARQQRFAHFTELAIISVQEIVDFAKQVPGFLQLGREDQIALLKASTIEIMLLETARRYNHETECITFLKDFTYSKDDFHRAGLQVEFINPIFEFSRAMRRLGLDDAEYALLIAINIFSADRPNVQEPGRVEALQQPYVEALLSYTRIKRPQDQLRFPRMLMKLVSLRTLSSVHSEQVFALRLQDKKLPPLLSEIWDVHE
# assayExplanation: LanthaScreen TR-FRET Liver X Receptor Coactivator Assay, LXR beta
# Assay type: biochemical
# testSettings: LXR beta IP, potency (Inflection Point), compound-induced co-activator recruitment, TR-FRET
pEC50: −log10 of the molar value.
observedProperty: pEC50

compound	measurement
CN(C)C(=O)c1ccc(O[C@H]2C[C@@H](CC3CCN(C(=O)[C@](O)(c4cccc(OC(F)F)c4)C(F)(F)F)CC3)C2)cc1Cl (single isomer, unassigned)	7.80

P = CN(C)C(=O)c1ccc(OCC[C@@H]2C[C@@H]2C2CCN(C(=O)[C@@](O)(c3ccccc3)C(F)(F)F)CC2)nc1Cl (single isomer, unassigned)
Q = CN(C)C(=O)c1ccc(OCCC[C@H]2CC23CCN(C(=O)[C@@](O)(c2ccccc2)C(F)(F)F)CC3)cc1Cl (single isomer, unassigned)
R = COc1cccc([C@@](O)(C(=O)N2CCC(CC[C@H](C)COc3ccc(C(N)=O)c(Cl)c3)CC2)C(F)(F)F)c1 (single isomer, unassigned)
Rank items: key pEC50, increasing. Output spec: labels arranged per the requested ranking.
Q, R, P

---

# assayedSystem: glutathione-S-transferase (GST) tagged LXRalpha LBD (ligand binding domain) (Homo sapiens)
# Construct: purchased Invitrogen pv4655
# Sequence (Q13133 209-447 limits assumed): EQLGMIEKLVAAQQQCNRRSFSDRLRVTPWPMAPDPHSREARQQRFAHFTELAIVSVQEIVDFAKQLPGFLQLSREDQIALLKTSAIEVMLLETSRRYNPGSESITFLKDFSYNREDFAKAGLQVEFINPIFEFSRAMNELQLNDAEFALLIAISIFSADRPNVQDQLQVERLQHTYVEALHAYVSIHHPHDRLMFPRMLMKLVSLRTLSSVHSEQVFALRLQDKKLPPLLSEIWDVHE
# assayExplanation: biochemical
# testSettings: LXR alpha IP, potency (Inflection Point), compound-induced co-activator recruitment, TR-FRET
observedProperty: EC50 (nM)

A = C[C@@H](CCC1CCN(C(=O)[C@](O)(c2cc(F)cc(F)c2)C(F)(F)F)CC1)COc1ccc(C(=O)N(C)C)c(Cl)c1 (single isomer, unassigned)
B = CCC(C)(C(=O)N1CCC2(CC1)C[C@H]2CCOc1ccc(C(=O)N(C)C)c(Cl)c1)c1ccccc1 (single isomer, unassigned)
C = CN(C)C(=O)c1ccc(OCCC2CC23CCN(C(=O)C2(c4ccccc4Cl)CCC2)CC3)cc1Cl (single isomer, unassigned)
D = O=C(NCC(F)F)c1ccc(OCCCCC2CCN(C(=O)[C@](O)(c3ccccc3)C(F)(F)F)CC2)cc1Cl (single isomer, unassigned)
E = COc1cccc([C@](O)(C(=O)N2CCC(CCCC(C)Oc3ccc(C(=O)N(C)C)c(Cl)c3)CC2)C(F)(F)F)c1 (single isomer, unassigned)
Would you mind ranking these compounds by ascending EC50? Output spec: labels arranged per the requested ranking.
C, A, B, D, E
(C: 91 nM, A: 150 nM, B: 505 nM, D: 856 nM, E: 1360 nM)

---

# assayedSystem: glutathione-S-transferase (GST) tagged LXRalpha LBD (ligand binding domain) (Homo sapiens)
# Construct: purchased Invitrogen pv4655
# assayExplanation: biochemical
# testSettings: read-out: LXR alpha actiivty at max dose, efficacy (% Emax) in relation to reference dual agonist T0901317
observedProperty: Emax (%)

Completed entries (count: 3):
compound	observedProperty	measurement
Cc1nnc(C(C)(C)C(=O)N2CCC3(CC2)CC3CCOc2ccc(C(=O)N(C)C)c(Cl)c2)s1 (single isomer, unassigned)	Emax	52
CN(C)C(=O)c1ccc(OCCC2CC23CCN(C(=O)C2(c4cc(F)ccc4F)CCC2)CC3)cc1Cl (single isomer, unassigned)	Emax	24
CN(C)C(=O)c1ccc(OCCCCC2CCN(C(=O)C(C)(C)c3ccccc3)CC2)cc1Cl	Emax	8

a = CC(C)Oc1cccc(C(O)(C(=O)N2CCC(CCCCOc3ccc(C(=O)N(C)C)c(Cl)c3)CC2)C(F)(F)F)c1 (single isomer, unassigned)
b = CN(C)C(=O)c1ccc(OCCCCC2CCN(C(=O)C(O)(c3ccccc3)C(F)(F)F)CC2)nc1C#N (stereo not shown)
c = CN(C)C(=O)c1ccc(OCCCCC2CCN(C(=O)C(C)(O)c3ccccc3)CC2)cc1Cl (single isomer, unassigned)
d = CN(C)C(=O)c1ccc(OCCC2CC23CCN(C(=O)C2(c4cncnc4)CCC2)CC3)cc1Cl (single isomer, unassigned)
Sequence the entries by Emax, beginning with the highest number. Output spec: labels arranged per the requested ranking.
b, a, d, c
(b: 37%, a: 21%, d: 14%, c: 5%)
